# System Under Test: T1, Human GPC3 (2119-GP; R&D systems), biotinylated (human, UniProt P51654 25-559, biotinylated using standard NHS chemistry)
# T1 construct: Bought protein; also called human Glypican-3
# T1 sequence (P51654 25-559 limits assumed): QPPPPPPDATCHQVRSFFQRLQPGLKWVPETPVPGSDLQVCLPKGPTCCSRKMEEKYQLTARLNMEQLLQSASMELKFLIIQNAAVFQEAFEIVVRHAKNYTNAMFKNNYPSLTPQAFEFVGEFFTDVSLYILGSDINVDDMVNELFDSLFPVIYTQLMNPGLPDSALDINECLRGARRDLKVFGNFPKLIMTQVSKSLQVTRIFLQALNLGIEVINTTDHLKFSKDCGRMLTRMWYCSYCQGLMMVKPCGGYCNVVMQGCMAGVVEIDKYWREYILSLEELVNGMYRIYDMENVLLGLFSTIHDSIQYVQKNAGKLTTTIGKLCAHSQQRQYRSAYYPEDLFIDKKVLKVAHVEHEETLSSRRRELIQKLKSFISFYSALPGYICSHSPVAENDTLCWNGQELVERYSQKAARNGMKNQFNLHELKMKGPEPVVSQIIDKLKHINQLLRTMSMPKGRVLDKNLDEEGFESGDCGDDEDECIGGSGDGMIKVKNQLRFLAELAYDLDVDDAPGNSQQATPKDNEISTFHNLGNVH
# Test: SPR (Biacore T200), biotinylated GPC3 captured on chip, mutein in flow
Measurement Type: pKd
FYI, pKd means -log10 of a concentration in mol per litre.

Enquiry: If you can, please state the reported pKd value of lipocalin mutein of SEQ ID NO: 10 (designed binder, hNGAL (Lcn2) mutein; also called optimized GPC3 specific lipocalin mutein) QDSTSDLIPAPPLSKVPLQQNFQDNQFQGKWYVVGRAGNGALREDKDPPKMWATIYELKEDKSYDVTNVRFARKKCVYSIGTFVPGSQPGEFTLGPIKSEPGNTASLVRVVSTNYNQHAMVFFKEVYQNREIFFIILYGRTKELTSELKENFIRFSKSLGLPENHIVFPVPIDQCIDGSAWSHPQFEK .
Return: 10.20
